Endpoint summary: pIC50, system: Histone deacetylase 8 (Homo sapiens, UniProt Q9BY41), multiple sources combined.
Sequence (Q9BY41 whole entry): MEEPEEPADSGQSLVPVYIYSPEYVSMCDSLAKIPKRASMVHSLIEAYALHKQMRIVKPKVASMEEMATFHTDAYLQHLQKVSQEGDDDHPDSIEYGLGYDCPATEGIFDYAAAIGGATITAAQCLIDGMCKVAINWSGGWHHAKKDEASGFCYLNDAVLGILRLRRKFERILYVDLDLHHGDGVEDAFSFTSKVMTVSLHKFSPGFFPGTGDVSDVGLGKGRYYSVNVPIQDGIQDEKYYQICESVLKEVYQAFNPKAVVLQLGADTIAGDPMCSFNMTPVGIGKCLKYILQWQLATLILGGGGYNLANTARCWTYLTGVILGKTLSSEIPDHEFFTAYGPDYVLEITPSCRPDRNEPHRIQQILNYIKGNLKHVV
pIC50: −log10 of the molar value.
Property: pIC50

Below, 2 compounds whose answers are already recorded.
- Line notation: "NCCC(=O)N1CC2(C[C@H]1C(=O)NCCCCCC(=O)NO)SCCS2"
  Target: "Histone deacetylase 8 (Homo sapiens, UniProt Q9BY41)"
  pIC50: 5.71
- Line notation: "CC(C)(C)OC(=O)N1Cc2cc(OCC(=O)NO)ccc2C[C@H]1C(=O)NCc1ccccc1"
  Target: "Histone deacetylase 8 (Homo sapiens, UniProt Q9BY41)"
  pIC50: 5.47

1. C[C@]1(Nc2ccc(C(=O)NO)cc2)CCN(c2ccc(Cl)cc2)C1=O
2. C/C(=C\Cc1ccc(NS(=O)(=O)c2ccccc2)cc1)CC(=O)NO
Could you tell me which of 1 and 2 has the lower pIC50 reading? In your reply, give the label of the chosen option.
2
(2: 5.70, 1: 6.74)

I. CC(=O)Nc1ccc2c(c1)CN(C(=O)[C@H](N)Cc1ccc(Cl)cc1Cl)C2
II. O=C(CCc1ccccc1)NO
Could you tell me which of I and II has the lower pIC50 reading? In your reply, give the label of the chosen option.
II
(II: 5.63, I: 7.00)

P. O=C(NO)c1cccc(-c2nc(CSc3ccccc3)n[nH]2)c1
Q. N[C@H](Cc1ccccc1)C(=O)N1Cc2ccccc2C1
Could you tell me which of P and Q has the lower pIC50 reading? In your reply, give the label of the chosen option.
Q
(Q: 5.94, P: 7.28)
